target: SHP2-C SH2; test: SH2 binding enrichment of the phosphorylated peptide, bacterial display (enrichment ratio); higher = better substrate or ligand; peptides without Tyr show the background;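 further: peptide library displayed on the E. coli surface as eCPX fusions, selected cells deep-sequenced, score is each peptide's frequency after selection divided by its frequency in the input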
endpoint: SH2 binding enrichment
Lab note: write the figure by itself, no unit.

Input: Quick one: SH2 binding enrichment for GFRVCYTPDSR [PTPRF_Y451_Y450C_YF] ?
Output: 0.687

Input: Look up SH2 binding enrichment: GEDPIYVTLEG [RTKtide_2018]
Output: 0.485

Input: Which value of SH2 binding enrichment has been reported for QKNVSYVSTVS [TASOR_Y1043] in the records?
Output: 0.891

Input: Which SH2 binding enrichment reading was recorded for the sequence SHSMKYFDTAV [HLA-C_Y31_R30K] ?
Output: 0.71

Input: Tell me the measured SH2 binding enrichment of GHLFAYDWIRI [BEST1_Y227_S231R_YF] , please.
Output: 1.43

Input: Field request: SH2 binding enrichment | item: FEREQYADRAR [RBM4_Y355_YF]
Output: 0.567

Input: # SH2 binding enrichment lookup, item FHKALYTVRTF [PDE6C_Y266_S270T_YF]
Output: 0.722

Input: Fill in: SH2 binding enrichment of GRQVIYTENER [GPR143_Y231_G229V] is ___
Output: 0.681

Input: Which SH2 binding enrichment is listed for KDAGDYKFKAK [LRIT3_Y326_C328Y_YF] ?
Output: 0.853

Input: What value of SH2 binding enrichment has been reported for the following sequence? LAAAKYKLNVD [SMARCA2_Y1190]
Output: 1.17

Input: Data request, read-out SH2 binding enrichment, for PLFRKYWPNHI [GREB1L_Y1560_YF]
Output: 0.973

Input: Can you look up the measured SH2 binding enrichment of EVVGRYSGHNA [MLH1_Y183_V185G] for me?
Output: 0.629

Input: Tell me the measured SH2 binding enrichment of VITTLYIGFLG [KCNQ1_Y267_L262V] , please.
Output: 0.862
